# Test system: DU-145
# PROCEDURE_SUMMARY: Growth assay (Cell Titer Glo)
# Assay type: cell-based
# ASSAY_CONTEXT: Homo sapiens; DU-145, prostate
ASSAY_READOUT: IC50 (nM)
A number alone suffices; assume nM.

The recorded IC50 for COC(=O)[C@H]1Cc2c([nH]c3ccccc23)[C@H](c2cc(OC)ccc2OC)N1C(=O)CCl [Compound 2f] is 232

---

For each record, write down the corresponding melting point.

The recorded melting point for entry "COC(=O)[C@H]1Cc2c([nH]c3ccccc23)[C@H](c2ccc(Cl)c(Cl)c2)N1C(=O)CCl" equals 163 to 165 °C

melting point measured on COC(=O)C1Cc2c([nH]c3ccccc23)C(c2c(Cl)cccc2Cl)N1C(=O)CCl (centres unmarked) [Compound 2r] = 153 to 156 °C

So, "COC(=O)[C@@H]1Cc2c([nH]c3ccccc23)[C@H](c2ccc(Cl)cc2Cl)N1C(=O)CCl" ? Its melting point was 215 to 218 °C

The reported melting point of the compound "COC(=O)[C@@H]1Cc2c([nH]c3ccccc23)[C@H](c2ccc(Cl)c(Cl)c2)N1C(=O)CCl" was 283 to 284 °C

Please fill in: melting point reported for "COC(=O)[C@@H]1Cc2c([nH]c3ccccc23)[C@H](c2ccc(Cl)c(Cl)c2)N1" = 88 to 91 °C

// melting point lookup, compound = "COC(=O)[C@@H]1Cc2c([nH]c3ccccc23)[C@@H](c2ccc(Cl)c(Cl)c2)N1" , result: 139 to 142 °C

For reference, reported melting point for "COC(=O)[C@H]1Cc2c([nH]c3ccccc23)[C@H](c2cc(OC)ccc2OC)N1" stands at 139 to 142 °C

Query "COC(=O)[C@@H]1Cc2c([nH]c3ccccc23)[C@@H](c2ccc(Cl)cc2Cl)N1" yields melting point of 128 to 130 °C

---

# Tested on: SK-MEL-5
# PROCEDURE_SUMMARY: Growth assay (Cell Titer Glo)
# Type: cell-based
# ASSAY_CONTEXT: Homo sapiens; SK-MEL-5, melanoma
ASSAY_READOUT: IC50

Please fill in: IC50 reported for "COC(=O)[C@H]1Cc2c([nH]c3ccccc23)[C@H](c2ccc(Cl)cc2Cl)N1C(=O)CCl" = > 3 µM

---

# Tested on: SNB-19
# PROCEDURE_SUMMARY: Growth assay (Cell Titer Glo)
# Format: cell-based
# ASSAY_CONTEXT: Homo sapiens; SNB-19, CNS
Assignment: determine reported pIC50 for the given compounds.
// field semantics: pIC50 = negative decimal log of concentration (mol/L)

Lab note: COC(=O)[C@H]1Cc2c([nH]c3ccccc23)[C@H](c2cc(OC)ccc2OC)N1C(=O)CCl [Compound 2f] gave pIC50 of 6.88

Just so you know, measured pIC50 for COC(=O)[C@H]1Cc2c([nH]c3ccccc23)[C@H](c2ccc(Cl)cc2Cl)N1C(=O)CCl [Compound 2j] came out at 5.98

---

# System: OVCAR-3
# PROCEDURE_SUMMARY: Growth assay (Cell Titer Glo)
# Type: cell-based
# ASSAY_CONTEXT: Homo sapiens; OVCAR-3, ovarian
ASSAY_READOUT: pIC50
The scale used: pIC50 is minus the common logarithm of the concentration in molar units.

Consider COC(=O)[C@H]1Cc2c([nH]c3ccccc23)[C@H](c2ccc(Cl)cc2Cl)N1C(=O)CCl [Compound 2j] . Its measured pIC50 is 6.89

---

# System: M14
# PROCEDURE_SUMMARY: Growth assay (Cell Titer Glo)
# Assay type: cell-based
# ASSAY_CONTEXT: Homo sapiens; M14, melanoma
# Description: All human tumor cell lines were obtained from ATCC and grown under standard cell culture conditions at 37° C. in a humidified atmosphere with 5% CO2. […] Cells were harvested at 70 to 90% confluence with trypsin/EDTA and used immediately Cell count and viability was determined by Trypan blue staining followed by hemocytometry. […] Tissue culture microtiter 96-well plates were seeded with cells at a density of 5,000 cells/well. […] Luminescence was measured by a Perkin Elmer Victor® multi-label plate reader.^6 […]
ASSAY_READOUT: pIC50
The read-out pIC50 is expressed as -log10 of concentration in moles per litre.

# pIC50 (molecule: "COC(=O)[C@H]1Cc2c([nH]c3ccccc23)[C@H](c2cc(OC)ccc2OC)N1C(=O)CCl" ) is 6.31

The molecule listed as "COC(=O)[C@H]1Cc2c([nH]c3ccccc23)[C@H](c2ccc(Cl)cc2Cl)N1C(=O)CCl" has a reported pIC50 of 5.65

---

# System: TK-10
# PROCEDURE_SUMMARY: Growth assay (Cell Titer Glo)
# Format: cell-based
# ASSAY_CONTEXT: Homo sapiens; TK-10, renal
ASSAY_READOUT: pIC50
Conceptually, pIC50 converts a concentration in mol/L into minus its log10.

So for "COC(=O)[C@H]1Cc2c([nH]c3ccccc23)[C@H](c2cc(OC)ccc2OC)N1C(=O)CCl" , the logged pIC50 turned out to be 7.11

# pIC50 of "COC(=O)[C@H]1Cc2c([nH]c3ccccc23)[C@H](c2ccc(Cl)cc2Cl)N1C(=O)CCl" = 6.70

---

ASSAY_READOUT: melting point

Value of measured melting point for the entry "COC(=O)[C@H]1Cc2c([nH]c3ccccc23)[C@H](c2ccc(Cl)cc2Cl)N1C(=O)CCl" : 106 to 109 °C

// field: melting point; key: "COC(=O)[C@H]1Cc2c([nH]c3ccccc23)[C@@H](c2ccc(Cl)cc2Cl)N1C(=O)CCl" ; value = 215 to 218 °C

Looking up COC(=O)C1Cc2c([nH]c3ccccc23)C(c2cc(OC)ccc2OC)N1C(=O)CCl (centres unmarked) , I found its melting point recorded as 228 to 230 °C

Please fill in: melting point reported for "COC(=O)[C@H]1Cc2c([nH]c3ccccc23)[C@H](c2ccc(Cl)c(Cl)c2)N1" = 140 to 143 °C

Consider "COC(=O)[C@H]1Cc2c([nH]c3ccccc23)[C@@H](c2cc(OC)ccc2OC)N1" . Its measured melting point is 102 to 105 °C

Measured values drawn from patent US9169247B2 for this set.
